# EXPERIMENTAL PROTOCOL: Oral bioavailability in rat at 10 mg/kg, po
# Assay type: ADME, organism-based
# EXPERIMENTAL PARAMETERS: in vivo
MEASURE: bioavailability (%)
The response must be a number in % with no trailing unit.

Asked: // lookup bioavailability for Cc1cc(-c2cccc(C3=Nc4cc(C)c(C(F)(F)F)cc4NC(=O)C3)c2)cc(C)n1
Given back: 52

----------
# SYSTEM TESTED: Metabotropic glutamate receptor 2 (Rattus norvegicus)
# Sequence (P31421 whole entry): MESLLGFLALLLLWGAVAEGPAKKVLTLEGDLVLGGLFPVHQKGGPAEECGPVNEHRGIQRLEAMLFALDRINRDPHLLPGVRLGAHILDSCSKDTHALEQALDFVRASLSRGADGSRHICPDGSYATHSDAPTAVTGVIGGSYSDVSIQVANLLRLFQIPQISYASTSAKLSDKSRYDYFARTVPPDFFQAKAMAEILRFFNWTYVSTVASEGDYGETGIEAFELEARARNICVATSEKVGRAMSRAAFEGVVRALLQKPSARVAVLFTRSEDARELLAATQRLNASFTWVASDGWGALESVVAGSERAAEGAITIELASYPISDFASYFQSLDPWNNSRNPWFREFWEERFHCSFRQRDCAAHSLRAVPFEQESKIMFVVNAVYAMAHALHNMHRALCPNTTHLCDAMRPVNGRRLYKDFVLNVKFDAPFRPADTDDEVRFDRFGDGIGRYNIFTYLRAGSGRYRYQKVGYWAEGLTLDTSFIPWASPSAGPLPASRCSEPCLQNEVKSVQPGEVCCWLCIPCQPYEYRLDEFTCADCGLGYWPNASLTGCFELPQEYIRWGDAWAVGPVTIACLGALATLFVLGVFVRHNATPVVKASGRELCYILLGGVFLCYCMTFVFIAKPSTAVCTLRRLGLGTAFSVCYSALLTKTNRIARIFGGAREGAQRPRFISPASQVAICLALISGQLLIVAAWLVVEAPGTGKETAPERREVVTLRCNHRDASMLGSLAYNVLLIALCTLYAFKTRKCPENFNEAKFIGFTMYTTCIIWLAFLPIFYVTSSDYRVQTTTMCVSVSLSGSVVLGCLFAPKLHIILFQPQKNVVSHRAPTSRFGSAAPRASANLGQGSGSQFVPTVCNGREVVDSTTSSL
# EXPERIMENTAL PROTOCOL: Antagonist activity at rat mGluR2 receptor expressed in CHO cells assessed as inhibition of GIRK current
# Type: functional, cell-based
MEASURE: pIC50
Give only the number. pIC50 is defined as minus log10 of concentration in molar units.

GIVEN SMILES: O=C1CC(c2cccc(-c3ccncc3)c2)=Nc2ccc(C(F)(F)F)cc2N1
pIC50: 7.00

GIVEN SMILES: O=C1CC(c2cccc(-n3ccnn3)c2)=Nc2ccc(-c3ccccc3F)cc2N1
pIC50: 7.96

GIVEN SMILES: CCOc1cc2c(cc1C(F)(F)F)NC(=O)CC(c1cccc(-c3ccncc3)c1)=N2
pIC50: 8.10

Please find the next compound below.
Asked: // lookup pIC50 for Cc1cc(-c2cccc(C3=Nc4cc(C)c(C(F)(F)F)cc4NC(=O)C3)c2)ccn1
Given back: 7.89
